biological target: UniProt:P11362; assay: Inhibition of N-terminal 6xHis-tagged human FGFR1 (456 to 765 residues) transfected in Escherichia coli Rossetta cells incubated for 30 mins by ADP-Glo assay
Sequence (P11362 whole entry, the tested form may be a part): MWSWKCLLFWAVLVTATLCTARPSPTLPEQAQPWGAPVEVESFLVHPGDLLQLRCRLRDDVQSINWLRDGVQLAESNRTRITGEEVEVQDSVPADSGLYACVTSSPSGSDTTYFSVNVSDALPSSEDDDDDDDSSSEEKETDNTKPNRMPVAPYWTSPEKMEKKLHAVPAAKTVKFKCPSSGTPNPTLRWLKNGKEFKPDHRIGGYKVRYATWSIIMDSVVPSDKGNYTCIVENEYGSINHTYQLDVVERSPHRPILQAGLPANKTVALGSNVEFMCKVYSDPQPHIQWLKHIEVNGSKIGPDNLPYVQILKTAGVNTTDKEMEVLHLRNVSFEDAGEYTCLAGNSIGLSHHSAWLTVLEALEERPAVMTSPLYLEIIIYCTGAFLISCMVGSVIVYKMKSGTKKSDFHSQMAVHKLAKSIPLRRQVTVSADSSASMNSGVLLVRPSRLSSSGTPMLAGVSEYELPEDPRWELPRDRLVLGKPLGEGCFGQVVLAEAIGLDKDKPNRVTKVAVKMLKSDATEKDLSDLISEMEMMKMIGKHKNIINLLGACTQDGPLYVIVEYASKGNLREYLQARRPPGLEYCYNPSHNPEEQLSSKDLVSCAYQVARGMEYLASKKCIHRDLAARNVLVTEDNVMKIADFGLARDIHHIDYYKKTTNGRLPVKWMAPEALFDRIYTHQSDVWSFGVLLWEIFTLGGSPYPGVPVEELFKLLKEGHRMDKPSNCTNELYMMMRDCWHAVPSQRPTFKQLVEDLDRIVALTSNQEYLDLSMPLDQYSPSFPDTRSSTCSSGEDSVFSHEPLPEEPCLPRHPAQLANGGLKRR
assay_readout: pIC50
Please keep in mind that pIC50 is minus log10 of the molar concentration; only the number is needed.

Notebook: C=CC(=O)Nc1ccccc1Nc1ncc2c(n1)N(CCCN1CCN(C(=O)C=C)CC1)C(=O)N(c1c(Cl)c(OC)cc(OC)c1Cl)C2 , pIC50 read as 5.59

----------
target: Fibroblast growth factor receptor 2 (Homo sapiens); test: Inhibition of N-terminal 6xHis-tagged human FGFR2 (453 to 770 residues) transfected in Escherichia coli Rossetta cells incubated for 30 mins by ADP-Glo assay
Sequence (P21802 whole entry, the tested form may be a part): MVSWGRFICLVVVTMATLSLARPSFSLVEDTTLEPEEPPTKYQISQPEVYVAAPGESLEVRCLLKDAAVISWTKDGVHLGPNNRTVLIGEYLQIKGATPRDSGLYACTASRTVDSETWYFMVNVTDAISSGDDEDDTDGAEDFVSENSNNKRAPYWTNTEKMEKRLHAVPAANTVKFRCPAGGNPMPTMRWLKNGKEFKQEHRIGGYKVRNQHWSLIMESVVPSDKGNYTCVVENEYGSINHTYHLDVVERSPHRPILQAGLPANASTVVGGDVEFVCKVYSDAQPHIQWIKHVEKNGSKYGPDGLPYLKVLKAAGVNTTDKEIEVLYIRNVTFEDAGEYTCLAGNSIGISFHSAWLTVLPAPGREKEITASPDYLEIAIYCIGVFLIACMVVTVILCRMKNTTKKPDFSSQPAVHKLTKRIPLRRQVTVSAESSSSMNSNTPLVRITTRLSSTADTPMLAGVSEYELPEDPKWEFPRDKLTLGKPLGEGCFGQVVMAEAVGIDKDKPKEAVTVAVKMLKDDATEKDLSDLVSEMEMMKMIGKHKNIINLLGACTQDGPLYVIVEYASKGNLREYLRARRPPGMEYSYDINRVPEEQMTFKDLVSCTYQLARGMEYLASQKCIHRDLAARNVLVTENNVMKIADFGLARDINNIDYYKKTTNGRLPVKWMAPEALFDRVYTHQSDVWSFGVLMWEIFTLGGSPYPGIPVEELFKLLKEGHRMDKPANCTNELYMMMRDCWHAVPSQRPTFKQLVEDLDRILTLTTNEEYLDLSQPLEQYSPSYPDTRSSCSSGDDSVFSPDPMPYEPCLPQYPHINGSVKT
assay_readout: IC50 (µM)
Reply numerically in µM, unit not repeated.

# IC50 measured on Fibroblast growth factor receptor 2 (Homo sapiens) for item C=CC(=O)Nc1ccccc1Nc1ncc2c(n1)N(CCCN1CCN(C(=O)C=C)CC1)C(=O)N(c1c(Cl)c(OC)cc(OC)c1Cl)C2 = 2.41

Data origin, for the record: ChEMBL document CHEMBL5505951
